I'd be grateful if you could share measured ICW Screen (ICW Inhibition) for these entries.
Molecular target: EGFR (Homo sapiens, UniProt P00533)
Construct: host or cells: A431
Sequence (P00533 25-1210): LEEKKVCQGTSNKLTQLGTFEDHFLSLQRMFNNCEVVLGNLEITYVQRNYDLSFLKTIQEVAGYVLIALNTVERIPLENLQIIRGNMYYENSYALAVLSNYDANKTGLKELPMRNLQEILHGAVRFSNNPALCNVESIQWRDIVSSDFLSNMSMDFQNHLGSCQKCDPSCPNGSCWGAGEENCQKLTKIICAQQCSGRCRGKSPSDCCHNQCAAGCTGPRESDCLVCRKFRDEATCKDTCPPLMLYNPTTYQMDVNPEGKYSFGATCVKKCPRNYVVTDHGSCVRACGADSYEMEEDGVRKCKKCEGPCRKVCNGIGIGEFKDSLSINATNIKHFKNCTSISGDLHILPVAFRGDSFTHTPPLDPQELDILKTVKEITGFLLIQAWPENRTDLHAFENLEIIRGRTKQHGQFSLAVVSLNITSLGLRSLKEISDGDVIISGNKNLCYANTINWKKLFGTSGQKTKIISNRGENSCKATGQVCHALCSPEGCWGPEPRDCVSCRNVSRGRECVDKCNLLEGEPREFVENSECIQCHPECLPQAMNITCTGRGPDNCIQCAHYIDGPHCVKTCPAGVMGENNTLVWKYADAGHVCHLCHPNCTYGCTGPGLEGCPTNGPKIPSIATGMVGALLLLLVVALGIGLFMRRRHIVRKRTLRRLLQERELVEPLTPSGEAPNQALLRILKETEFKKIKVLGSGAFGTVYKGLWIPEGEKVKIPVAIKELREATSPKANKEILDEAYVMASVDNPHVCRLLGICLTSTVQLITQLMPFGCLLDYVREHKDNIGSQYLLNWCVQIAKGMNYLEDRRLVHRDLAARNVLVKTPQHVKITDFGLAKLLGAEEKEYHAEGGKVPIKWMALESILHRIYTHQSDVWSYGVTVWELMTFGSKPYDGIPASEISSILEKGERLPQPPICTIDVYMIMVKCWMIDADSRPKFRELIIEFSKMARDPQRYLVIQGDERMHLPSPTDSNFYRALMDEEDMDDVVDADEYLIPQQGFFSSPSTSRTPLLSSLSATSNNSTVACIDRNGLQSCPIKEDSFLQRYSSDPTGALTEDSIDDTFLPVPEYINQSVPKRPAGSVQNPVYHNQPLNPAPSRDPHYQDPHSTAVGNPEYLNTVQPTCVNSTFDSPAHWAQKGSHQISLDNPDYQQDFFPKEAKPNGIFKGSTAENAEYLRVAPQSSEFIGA
Assay: EGFR in-cell Western (ICW) screening protocol (EGFR inhibition assay);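 also: compound at 125 µM in assay in A431 cells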
Format: cell-based
Answers are plain numbers.

Please review the following examples before continuing.
stdin: Quick one: ICW Screen (ICW Inhibition) of O=C(CCc1ccco1)NC(=S)Nc1ccc(S(=O)(=O)NCCc2ccccc2)cc1 [AD4-10624] ?
stdout: 49.448

stdin: For the compound shown here, O=C(NC(=S)Nc1ccc(S(=O)(=O)Nc2ccccc2)cc1)c1ccco1 [AD4-10705] , give the reported ICW Screen (ICW Inhibition).
stdout: 47.764

stdin: Which value of ICW Screen (ICW Inhibition) has been reported for Cc1ccc(OCC(=O)NC(=S)Nc2ccc(S(=O)(=O)N3CCOCC3)cc2)c(Br)c1 [AD4-11401] in the records?
stdout: 25.557

stdin: # ICW Screen (ICW Inhibition) lookup, item COc1ccc(CC(=O)NC(=S)Nc2ccc(S(=O)(=O)NC(C)(C)C)cc2)cc1 [AD4-12133]
stdout: 25.058

stdin: Tell me the measured ICW Screen (ICW Inhibition) of COc1ccccc1/C=C/C(=O)NC(=S)Nc1ccc(S(=O)(=O)Nc2nc(C)cc(C)n2)cc1 [AD4-12148] , please.
stdout: 51.845

stdin: Can you look up the measured ICW Screen (ICW Inhibition) of CCc1nnc(NS(=O)(=O)c2ccc(NC(=S)NC(=O)/C=C/c3ccccc3)cc2)s1 [AD4-11861] for me?
stdout: 30.242

stdin: Returns the measured ICW Screen (ICW Inhibition) for the input compound. Input: CC(C)C(=O)NC(=S)Nc1ccc(S(=O)(=O)N(C)c2ccccc2)cc1 [AD4-12042]
stdout: 34.592

Read the next record carefully.
stdin: // lookup ICW Screen (ICW Inhibition) for CC(C)(C)C(=O)NC(=S)Nc1ccc(S(=O)(=O)NCCc2ccccc2)cc1 [AD4-10313]
stdout: 30.774
